Where these numbers come from: patent US20240279345A1

target: rh-α5β1 (Homo sapiens, UniProt P05556+P08648); assay: Competition binding studies by Biolayer Interferometry (epitope groups); settings: immobilized mAb A-15B08; secondary mAb pre-mixed with 20 nM rh-α5β1; relative to antigen alone
Sequence (P08648 42-894 limits assumed): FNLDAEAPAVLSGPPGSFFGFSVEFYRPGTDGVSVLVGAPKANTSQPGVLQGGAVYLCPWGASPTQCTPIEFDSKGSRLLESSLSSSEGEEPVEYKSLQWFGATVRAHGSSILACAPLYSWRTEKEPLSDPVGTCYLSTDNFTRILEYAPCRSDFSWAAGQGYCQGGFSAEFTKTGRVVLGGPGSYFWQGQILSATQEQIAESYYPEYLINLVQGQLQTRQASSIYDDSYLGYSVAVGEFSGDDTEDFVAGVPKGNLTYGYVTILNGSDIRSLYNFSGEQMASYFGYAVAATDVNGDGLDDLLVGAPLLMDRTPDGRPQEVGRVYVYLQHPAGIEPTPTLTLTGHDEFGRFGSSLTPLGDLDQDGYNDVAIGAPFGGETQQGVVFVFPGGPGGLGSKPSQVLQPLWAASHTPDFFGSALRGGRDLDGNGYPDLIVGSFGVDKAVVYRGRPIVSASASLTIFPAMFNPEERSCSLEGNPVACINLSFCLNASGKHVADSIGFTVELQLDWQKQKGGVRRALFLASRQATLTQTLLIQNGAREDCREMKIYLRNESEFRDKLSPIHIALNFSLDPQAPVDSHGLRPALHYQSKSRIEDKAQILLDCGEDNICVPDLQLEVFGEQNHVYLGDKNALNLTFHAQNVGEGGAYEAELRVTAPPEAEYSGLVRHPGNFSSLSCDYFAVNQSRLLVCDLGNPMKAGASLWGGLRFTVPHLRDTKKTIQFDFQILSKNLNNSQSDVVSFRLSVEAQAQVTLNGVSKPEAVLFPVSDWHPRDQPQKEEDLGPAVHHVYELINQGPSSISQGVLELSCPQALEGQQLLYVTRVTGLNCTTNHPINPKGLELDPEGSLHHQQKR
Sequence (P08648 895-995 limits assumed): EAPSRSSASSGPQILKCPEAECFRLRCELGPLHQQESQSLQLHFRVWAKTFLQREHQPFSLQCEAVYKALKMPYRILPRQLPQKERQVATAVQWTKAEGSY
Sequence (P05556 21-728 limits assumed): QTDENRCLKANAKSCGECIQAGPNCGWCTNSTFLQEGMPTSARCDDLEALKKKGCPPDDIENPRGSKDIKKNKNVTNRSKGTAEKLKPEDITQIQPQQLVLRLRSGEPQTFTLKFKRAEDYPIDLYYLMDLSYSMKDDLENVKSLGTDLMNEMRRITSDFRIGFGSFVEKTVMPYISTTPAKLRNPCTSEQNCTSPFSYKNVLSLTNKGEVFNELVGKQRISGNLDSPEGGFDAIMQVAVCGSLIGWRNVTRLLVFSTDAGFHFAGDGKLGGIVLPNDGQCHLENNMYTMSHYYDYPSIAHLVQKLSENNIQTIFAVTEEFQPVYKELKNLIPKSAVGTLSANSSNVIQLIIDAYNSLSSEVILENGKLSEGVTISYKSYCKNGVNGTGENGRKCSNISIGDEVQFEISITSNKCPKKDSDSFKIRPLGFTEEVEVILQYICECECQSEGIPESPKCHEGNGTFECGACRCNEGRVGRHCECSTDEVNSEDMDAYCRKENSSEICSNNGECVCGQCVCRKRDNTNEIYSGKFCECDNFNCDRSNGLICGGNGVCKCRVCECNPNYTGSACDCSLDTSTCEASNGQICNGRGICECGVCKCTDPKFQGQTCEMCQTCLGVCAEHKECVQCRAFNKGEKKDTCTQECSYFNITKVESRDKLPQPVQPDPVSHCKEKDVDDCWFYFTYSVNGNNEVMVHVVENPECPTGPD
QUANTITY_NAME: % Response (%)
State the answer as a number, implicitly in %.

Below, each entry is followed by its recorded % Response result.
[[record]]
molecule = "A2-7A05: anti-α5β1 antibody, VH SEQ ID NO:77, VL SEQ ID NO:78; tested as mouse hybridoma antibody and as human IgG4 chimera (antibody, V domains shown, A2-7A05 VH Sequence; A2-7A05 VL Sequence, tested as mouse hybridoma antibody and as human IgG4 chimera) VH: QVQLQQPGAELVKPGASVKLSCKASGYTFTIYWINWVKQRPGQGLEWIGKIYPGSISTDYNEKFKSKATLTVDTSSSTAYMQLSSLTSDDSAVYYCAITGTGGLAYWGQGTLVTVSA VL: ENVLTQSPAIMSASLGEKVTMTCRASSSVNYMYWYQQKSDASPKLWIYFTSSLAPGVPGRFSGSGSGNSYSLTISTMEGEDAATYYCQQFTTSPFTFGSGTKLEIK"
endpoint_unit = "%"
value_reported = 150.63

[[record]]
molecule = "A2-5D10: anti-α5β1 antibody, VH SEQ ID NO:51, VL SEQ ID NO:52 (antibody, V domains shown, A2-5D10 VH Sequence; A2-5D10 VL Sequence) VH: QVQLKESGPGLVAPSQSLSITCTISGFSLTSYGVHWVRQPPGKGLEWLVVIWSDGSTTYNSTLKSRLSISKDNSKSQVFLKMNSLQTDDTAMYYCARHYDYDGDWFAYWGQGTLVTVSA VL: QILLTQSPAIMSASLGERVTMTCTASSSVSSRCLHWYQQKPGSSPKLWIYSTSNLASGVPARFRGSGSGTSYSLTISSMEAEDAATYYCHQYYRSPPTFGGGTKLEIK"
endpoint_unit = "%"
value_reported = 106.82


API: the following record is the query input.
## Task What value of % Response has been recorded for this entry: C-14D12: anti-α5β1 antibody, VH SEQ ID NO:109, VL SEQ ID NO:110; tested as mouse hybridoma antibody and as human IgG4 chimera (antibody, V domains shown, C-14D12 VH Sequence; C-14D12 VL Sequence, tested as mouse hybridoma antibody and as human IgG4 chimera) VH: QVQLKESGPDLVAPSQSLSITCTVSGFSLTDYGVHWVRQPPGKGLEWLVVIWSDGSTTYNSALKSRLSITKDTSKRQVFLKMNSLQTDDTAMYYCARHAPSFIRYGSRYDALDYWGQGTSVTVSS VL: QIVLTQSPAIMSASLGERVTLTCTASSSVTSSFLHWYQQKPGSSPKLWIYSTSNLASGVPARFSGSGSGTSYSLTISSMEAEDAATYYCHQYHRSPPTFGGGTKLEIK
## Result −72.85
